Origin of measurements: the supplement of paper PMC6755084

B1: F1*; the commonest letter at each place (parent)
chain: GAGACCGCAACTGAAAAGTTGTTATCACTTGTCGTAAGACACTTTGGATGGGTTGAAGTTCTGCACGTAGAAGCAAAAGGC

- Variants of: B1
- Method Notes: fraction ligated after 30 min (ligated reads / total reads); higher = more ligase activity
- Assay Context: with F1*sub RNA substrate (template-directed ligation), 42 °C
Reported fraction ligated values for a set of variants
Measured Quantity: fraction ligated

Mutant Designation: G34A G55C
Measured Quantity: fraction ligated
Recorded Result: 0.801
//
Mutant Designation: T53A
Measured Quantity: fraction ligated
Recorded Result: 0.834
//
Mutant Designation: T32A A57G
Measured Quantity: fraction ligated
Recorded Result: 0.859
//
Mutant Designation: T29G G55A
Measured Quantity: fraction ligated
Recorded Result: 0.79
//
Mutant Designation: T29G A41C
Measured Quantity: fraction ligated
Recorded Result: 0.83
//
Mutant Designation: C28T A41T
Measured Quantity: fraction ligated
Recorded Result: 0.806
//
Mutant Designation: T35C A37C
Measured Quantity: fraction ligated
Recorded Result: 0.845
//
Mutant Designation: C33G C42G
Measured Quantity: fraction ligated
Recorded Result: 0.853
//
Mutant Designation: G47T G50C
Measured Quantity: fraction ligated
Recorded Result: 0.048
//
Mutant Designation: A27C G50A
Measured Quantity: fraction ligated
Recorded Result: 0.18
